Experiment: Slurry screening, solubility determined by HPLC
Format: physicochemical
Conditions: organic solvent or mixture, thermodynamic from solid; slurry stirred 5 days; solvent toluene
READOUT_NAME: solubility at 5 days

Task: Quickly give me recorded solubility at 5 days for CCCN(CCC)C(=O)C1=Cc2ccc(-c3ccc(C(=O)N4CCCC4)cc3)cc2N=C(N)C1
Output: 450 µg/mL

----------
Assay: Solubility of Forms A and G after 40 min stirring
Assay type: physicochemical
Details: MEK, 22 °C, organic solvent or mixture, thermodynamic from solid
READOUT_NAME: solubility at 40 min (µg/mL)
Express the result in µg/mL but write the number alone.

Task: Quickly give me recorded solubility at 40 min for CCCN(CCC)C(=O)C1=Cc2ccc(-c3ccc(C(=O)N4CCCC4)cc3)cc2N=C(N)C1 [Compound A]
Output: 2400

----------
Assay: Solubility of Form A at 20° C. and 40° C.
Type: physicochemical
Conditions: organic solvent or mixture, thermodynamic from solid; 2-PrOH, 20° C., stirred 2 days
READOUT_NAME: solubility at 2 days (µg/mL)
Express the result in µg/mL but write the number alone.

Task: Quickly give me recorded solubility at 2 days for CCCN(CCC)C(=O)C1=Cc2ccc(-c3ccc(C(=O)N4CCCC4)cc3)cc2N=C(N)C1 [Form A]
Output: 4500

----------
Experiment: Solubility of Form A at 20° C. and 40° C.
Assay type: physicochemical
Settings: organic solvent or mixture, thermodynamic from solid; Toluene/2-PrOH 7:3 v/v, 40° C., stirred 2 days
READOUT_NAME: solubility at 2 days (mg/mL)
Express the result in mg/mL but write the number alone.

Task: Quickly give me recorded solubility at 2 days for CCCN(CCC)C(=O)C1=Cc2ccc(-c3ccc(C(=O)N4CCCC4)cc3)cc2N=C(N)C1 [Form A]
Output: 45.9

----------
Assay: Slurry screening, solubility determined by HPLC
Format: physicochemical
Conditions: aqueous with cosolvent or surfactant or cyclodextrin, thermodynamic from solid; slurry stirred 5 days; solvent EtOH/water 1/1
READOUT_NAME: solubility at 5 days (µg/mL)
Express the result in µg/mL but write the number alone.

Task: Quickly give me recorded solubility at 5 days for CCCN(CCC)C(=O)C1=Cc2ccc(-c3ccc(C(=O)N4CCCC4)cc3)cc2N=C(N)C1
Output: 3220

----------
Assay: Solubility of Form A at 20° C. and 40° C.
Assay type: physicochemical
Settings: organic solvent or mixture, thermodynamic from solid; THF, 20° C., stirred 2 days
READOUT_NAME: solubility at 2 days (µg/mL)
Express the result in µg/mL but write the number alone.

Task: Quickly give me recorded solubility at 2 days for CCCN(CCC)C(=O)C1=Cc2ccc(-c3ccc(C(=O)N4CCCC4)cc3)cc2N=C(N)C1 [Form A]
Output: 3700

----------
Test: Solubility of Forms A and G after 40 min stirring
Assay type: physicochemical
Settings: EtOH, 0 °C, organic solvent or mixture, thermodynamic from solid
READOUT_NAME: solubility at 40 min (µg/mL)
Express the result in µg/mL but write the number alone.

Task: Quickly give me recorded solubility at 40 min for CCCN(CCC)C(=O)C1=Cc2ccc(-c3ccc(C(=O)N4CCCC4)cc3)cc2N=C(N)C1 [Compound A]
Output: 4700

----------
Test: Slurry screening, solubility determined by HPLC
Assay type: physicochemical
Conditions: organic solvent or mixture, thermodynamic from solid; slurry stirred 5 days; solvent EtOAc wet
READOUT_NAME: solubility at 5 days (µg/mL)
Express the result in µg/mL but write the number alone.

Task: Quickly give me recorded solubility at 5 days for CCCN(CCC)C(=O)C1=Cc2ccc(-c3ccc(C(=O)N4CCCC4)cc3)cc2N=C(N)C1
Output: 2690

Provenance of the data: patent US10604510B2
